# EXPERIMENTAL SYSTEM: T1, human LRRC15 extracellular domain with C-terminal His tag (human, UniProt Q8TF66 22-538)
# T1 construct: Recombinant, made in HEK293; the entry holds the extracellular domain and the His tag; SPR analyte; also called TPP-1545; hLRRC15 CT-His
# T1 sequence: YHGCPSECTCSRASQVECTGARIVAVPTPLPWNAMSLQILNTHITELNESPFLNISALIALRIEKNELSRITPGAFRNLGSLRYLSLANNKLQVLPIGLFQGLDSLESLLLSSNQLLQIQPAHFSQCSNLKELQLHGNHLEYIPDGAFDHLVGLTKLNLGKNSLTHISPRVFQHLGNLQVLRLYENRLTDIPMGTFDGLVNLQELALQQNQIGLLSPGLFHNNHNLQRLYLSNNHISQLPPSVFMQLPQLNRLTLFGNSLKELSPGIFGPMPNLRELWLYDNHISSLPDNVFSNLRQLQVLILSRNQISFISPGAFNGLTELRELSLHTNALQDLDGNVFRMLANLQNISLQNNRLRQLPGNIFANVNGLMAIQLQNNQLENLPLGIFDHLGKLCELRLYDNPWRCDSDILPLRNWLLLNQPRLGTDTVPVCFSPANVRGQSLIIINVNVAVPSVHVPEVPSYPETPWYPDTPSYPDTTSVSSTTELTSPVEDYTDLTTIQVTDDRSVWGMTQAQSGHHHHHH
# ASSAY METHOD TEXT: SPR Biacore T200, antibody captured, LRRC15 analyte, 37°C
READOUT LABEL: pKd
Remember, pKd is on a log scale: it is -log10 of the molar concentration.

BINDER: TPP-14392 (antibody, human IgG1, kappa, V domains shown, also called 13612-rec05-hIgG1Kappa) VH: EVQLLESGGGLVQPGGSLRLSCAASGFTFSGYMMSWVRQAPGKGLEWVSGIYPSPGYTYYADSVKGRFTISRDNSKNTLYLQMNSLRAEDTAVYYCAREKASDLSGSYSEALDYWGQGTLVTVSS VL: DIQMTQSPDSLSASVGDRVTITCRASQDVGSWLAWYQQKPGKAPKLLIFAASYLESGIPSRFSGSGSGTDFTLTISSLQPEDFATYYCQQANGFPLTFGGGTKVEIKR
pKd: 7.04

BINDER: TPP-17074 (antibody, human IgG1, kappa, V domains shown, also called 438H-M161-K22-hIgG1) VH: EVQLLESGGGLVQPGGSLRLSCAASGFTFSGYMMSWVRQAPGKGLEWVSGIYPSGGYALYADSVKGRFTISRDNSKNTLYLQMNSLRAEDTAVYYCAREKAADLFGSYSEALDYWGQGTLVTVSS VL: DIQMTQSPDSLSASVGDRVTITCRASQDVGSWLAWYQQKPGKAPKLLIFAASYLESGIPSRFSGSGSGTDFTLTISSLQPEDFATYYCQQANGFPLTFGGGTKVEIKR
pKd: 8.72

Specify reported pKd for the binder shown: TPP-12942 (antibody, human IgG1, kappa, V domains shown, Prior art humanized IgG1 kappa antibody, used as comparator; also called huM25; huM25-hIgG1Kappa) VH: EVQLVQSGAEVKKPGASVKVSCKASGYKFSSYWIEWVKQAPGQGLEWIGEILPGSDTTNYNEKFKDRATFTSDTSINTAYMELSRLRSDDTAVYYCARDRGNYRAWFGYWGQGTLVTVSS VL: DIQMTQSPSSLSASVGDRVTITCRASQDISNYLNWYQQKPGGAVKFLIYYTSRLHSGVPSRFSGSGSGTDYTLTISSLQPEDFATYFCQQGEALPWTFGGGTKVEIKR
7.14

Return value of pKd for input TPP-17078 (antibody, human IgG1, kappa, V domains shown, also called 438H-M308-H05-hIgGkappa) VH: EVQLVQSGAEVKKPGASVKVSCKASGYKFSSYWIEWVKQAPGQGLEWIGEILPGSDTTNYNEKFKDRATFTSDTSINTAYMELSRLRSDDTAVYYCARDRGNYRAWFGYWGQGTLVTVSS VL: DIQMTQSPSSLSASVGDRVTITCRASQSISSYLNWYQQKPGGAPKFLIYYASSLQSGVPSRFSGSGSGTDYTLTISSLQPEDFATYYCQQGFSLPWTFGGGTKVEIKR , no commentary.
8.00

All figures here come from patent US20240108766A1.
